Reference for the values: patent US20240343803A1

# target system: T1, Fusion protein of extracellular domain of cynomolgus monkey TIGIT and mouse IgG2a Fc fragment (cynomolgus … (cynomolgus monkey))
# T1 construct: The entry includes the signal peptide (limits not recoverable) and the mouse IgG2a Fc
# T1 sequence (chain, as listed by the source limits assumed): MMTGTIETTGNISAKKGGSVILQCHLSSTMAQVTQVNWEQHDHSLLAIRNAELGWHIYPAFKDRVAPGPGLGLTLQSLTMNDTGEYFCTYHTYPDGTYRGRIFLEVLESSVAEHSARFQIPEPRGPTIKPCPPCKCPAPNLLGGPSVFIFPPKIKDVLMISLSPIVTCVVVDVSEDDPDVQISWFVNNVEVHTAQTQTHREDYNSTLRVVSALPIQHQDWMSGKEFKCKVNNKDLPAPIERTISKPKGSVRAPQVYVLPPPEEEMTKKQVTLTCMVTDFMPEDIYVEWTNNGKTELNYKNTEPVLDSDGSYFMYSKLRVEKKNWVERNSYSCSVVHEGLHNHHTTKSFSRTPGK
# protocol notes: ELISA, cynomolgus monkey TIGIT ECD-mFc
# Experimental: After discarding the coating solution, the plate was added with 5% skim milk powder (Sangon Biotech, CAT #A600669-0250)-PBS, 250 μL/well, and incubated at 37° C. for 2-4 hours. […] 1M HCL, 50 μL/well, was then added into the plate to terminate the reaction, and the OD450 nm was read by a microplate reader (Biotek, Powerwave HT). […]
What pEC50 was measured for each of the following?
// field semantics: pEC50 = negative decimal log of concentration (mol/L)

Identify the reported pEC50 for the following entry. TIGIT-006-H2L2 (antibody, V domains shown, Humanized anti-TIGIT antibody) VH: EVQLQESGPGLVKPSETLSLTCAVSGYSMTSDYWNWIRQPPGKGLEWIGYISYSGRTYYNPSLKSRVTISRDTSKNQFSLKLSSVTAADTAVYYCARGDYSNYGGAMYDWGQGTTVTVSS VL: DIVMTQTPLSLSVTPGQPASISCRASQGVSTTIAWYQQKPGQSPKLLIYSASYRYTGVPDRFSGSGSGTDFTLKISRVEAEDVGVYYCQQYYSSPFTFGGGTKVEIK
8.47

Consider the binder TIGIT-006-H4L1 (antibody, V domains shown, Humanized anti-TIGIT antibody) VH: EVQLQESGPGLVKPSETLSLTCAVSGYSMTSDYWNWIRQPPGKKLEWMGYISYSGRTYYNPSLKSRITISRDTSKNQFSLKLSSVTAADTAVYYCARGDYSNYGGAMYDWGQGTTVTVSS VL: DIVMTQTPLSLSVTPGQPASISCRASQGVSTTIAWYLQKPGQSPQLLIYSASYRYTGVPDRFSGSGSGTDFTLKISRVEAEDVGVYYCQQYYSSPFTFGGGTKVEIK and give its recorded pEC50.
8.82

State its pEC50: TIGIT-070-H1L2 (antibody, V domains shown, Humanized anti-TIGIT antibody) VH: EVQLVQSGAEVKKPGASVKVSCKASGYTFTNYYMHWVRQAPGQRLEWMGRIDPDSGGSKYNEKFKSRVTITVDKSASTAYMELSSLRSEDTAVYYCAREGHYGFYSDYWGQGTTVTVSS VL: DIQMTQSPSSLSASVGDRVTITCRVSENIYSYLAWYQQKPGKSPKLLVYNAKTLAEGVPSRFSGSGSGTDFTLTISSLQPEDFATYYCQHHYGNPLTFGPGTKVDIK
10.94
